- condition_summary: 298.15 K; 101.33 kPa; Liquid; Vibrating tube method
metric: mass density (kg/m3)

molecule="c1ccccc1 [benzene]" metric="mass density" unit_string=kg/m3 value_measured=873.71
molecule="CCCCCCCC [octane]" metric="mass density" unit_string=kg/m3 value_measured=698.86
molecule="CCCCCCCCCC [decane]" metric="mass density" unit_string=kg/m3 value_measured=726.15
molecule="CCCC[N+]1(C)CCCC1.N#CN=C=[N-] [1-butyl-1-methylpyrrolidinium dicyanamide]" metric="mass density" unit_string=kg/m3 value_measured=1014.47
